- target under test: UniProtKB Q03311
- test details: Inhibition of mouse serum BChE after 1 hr by modified Ellman's colorimetric method
endpoint: IC50 (nM)
Your answer is read as nM, so omit the unit and give the number.

Below: 5 molecules and their reported IC50.
Cc1ccc(CCN2CC[C@@]3(C)c4cc(OC(=O)Nc5ccc(C(C)C)cc5)ccc4N(C)[C@@H]23)cc1	730
CC(C)c1ccc(NC(=O)Oc2ccc3c(c2)[C@]2(C)CCN(C(Cc4ccccc4)c4ccccc4)[C@@H]2N3C)cc1 (some centres not stated)	15000
CC(C)c1ccc(NC(=O)Oc2ccc3c(c2)[C@]2(C)CCN(CC(c4ccccc4)c4ccccc4)[C@@H]2N3C)cc1	10000
CC(C)c1ccc(CCN2CC[C@@]3(C)c4cc(OC(=O)Nc5ccc(C(C)C)cc5)ccc4N(C)[C@@H]23)cc1	3300
CC(C)c1ccc(NC(=O)Oc2ccc3c(c2)[C@]2(C)CCN(CCCCc4ccccc4)[C@@H]2N3C)cc1	550

# input for lookup
Qu. Under UniProtKB Q03311: IC50 value of `CC(C)c1ccc(NC(=O)Oc2ccc3c(c2)[C@]2(C)CCN(Cc4ccccc4)[C@@H]2N3C)cc1` ?
Ans. 510

---

- target under test: Cholinesterase (Mus musculus)
- Sequence (Q03311 whole entry): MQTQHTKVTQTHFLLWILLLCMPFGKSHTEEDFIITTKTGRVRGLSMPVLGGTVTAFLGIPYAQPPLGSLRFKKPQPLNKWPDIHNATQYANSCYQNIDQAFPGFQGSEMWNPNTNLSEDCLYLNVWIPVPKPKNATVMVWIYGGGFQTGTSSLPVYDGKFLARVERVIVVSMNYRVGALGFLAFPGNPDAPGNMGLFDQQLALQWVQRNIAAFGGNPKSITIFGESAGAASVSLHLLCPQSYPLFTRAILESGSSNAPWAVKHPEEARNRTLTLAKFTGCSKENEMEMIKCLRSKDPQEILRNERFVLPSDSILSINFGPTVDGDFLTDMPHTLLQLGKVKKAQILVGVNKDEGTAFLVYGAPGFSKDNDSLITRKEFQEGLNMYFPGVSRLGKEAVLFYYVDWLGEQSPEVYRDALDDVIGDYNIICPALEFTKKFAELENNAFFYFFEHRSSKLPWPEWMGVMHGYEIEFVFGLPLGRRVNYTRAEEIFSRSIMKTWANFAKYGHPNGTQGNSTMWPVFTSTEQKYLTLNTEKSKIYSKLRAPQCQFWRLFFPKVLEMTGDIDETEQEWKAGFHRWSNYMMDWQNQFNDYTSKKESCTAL
- test details: Inhibition of mouse serum BChE after 1 hr by modified Ellman's colorimetric method
endpoint: IC50 (nM)
Your answer is read as nM, so omit the unit and give the number.

CC(C)c1ccc(NC(=O)Oc2ccc3c(c2)[C@]2(C)CCN(CCCc4ccccc4)[C@@H]2N3C)cc1	510
CC(C)c1ccc(NC(=O)Oc2ccc3c(c2)[C@]2(C)CCN(CCc4ccccn4)[C@@H]2N3C)cc1	160
CC(C)c1ccc(NC(=O)Oc2ccc3c(c2)[C@]2(C)CCN(CC(C)c4ccccc4)[C@@H]2N3C)cc1 (stereo partly specified)	720
CC(C)c1ccc(NC(=O)Oc2ccc3c(c2)[C@]2(C)CCN(CCN4CCCCC4)[C@@H]2N3C)cc1	170
Cc1ccc(CCN2CC[C@@]3(C)c4cc(OC(=O)Nc5ccc(C(C)C)cc5)ccc4N(C)[C@@H]23)c(C)c1	1100
CC(C)c1ccc(NC(=O)Oc2ccc3c(c2)[C@]2(C)CCN(CCc4ccc(Cl)cc4)[C@@H]2N3C)cc1	500
CC(C)c1ccc(NC(=O)Oc2ccc3c(c2)[C@]2(C)CCN(CCc4ccc(Cl)cc4Cl)[C@@H]2N3C)cc1	2600
CC(C)c1ccc(NC(=O)Oc2ccc3c(c2)[C@]2(C)CCN(CCc4ccc(F)cc4)[C@@H]2N3C)cc1	500

Qu. Under Cholinesterase (Mus musculus): IC50 value of `CC(C)c1ccc(NC(=O)Oc2ccc3c(c2)[C@]2(C)CCN(C)[C@@H]2N3C)cc1` ?
Ans. 240

Qu. Under Cholinesterase (Mus musculus): IC50 value of `CC(C)c1ccc(NC(=O)Oc2ccc3c(c2)[C@]2(C)CCN(CCc4ccncc4)[C@@H]2N3C)cc1` ?
Ans. 170

Qu. Under Cholinesterase (Mus musculus): IC50 value of `CC(C)c1ccc(NC(=O)Oc2ccc3c(c2)[C@]2(C)CCN(CCc4cccnc4)[C@@H]2N3C)cc1` ?
Ans. 180
